System: SNU-C1 (Colorectal Carcinoma)
Experiment: combination Emax (second highest fraction inhibited in the dose matrix, 72 h); higher = more inhibition; extreme values may be limits of the assay
Returns Condition met if the recorded combination Emax is greater than or equal to 0.7, and Condition not met otherwise.

Please review the following examples before continuing.
In: Decide: combination Emax of CN(CCO)CC[C@H](CSc1ccccc1)Nc1ccc(S(=O)(=O)NC(=O)c2ccc(N3CCC([C@@H](O)c4ccccc4-c4ccc(Cl)cc4)CC3)cc2)cc1S(=O)(=O)C(F)(F)F [AZD4320] + Cn1cnc2c(F)c(Nc3ccc(Br)cc3Cl)c(C(=O)NOCCO)cc21 [Selumetinib] (first compound max 1 µM, 7x7, partner max 3 µM) >= 0.7?
Out: Condition met

In: Decide: combination Emax of NC1(C(=O)N[C@@H](CCO)c2ccc(Cl)cc2)CCN(c2ncnc3[nH]ccc23)CC1 [Capivasertib] + CC(=O)c1c(C)c2cnc(Nc3ccc(N4CCNCC4)cn3)nc2n(C2CCCC2)c1=O [Palbociclib] (first compound max 10 µM, 7x7, partner max 10 µM) >= 0.7?
Out: Condition not met

In: Decide: combination Emax of CN(CCO)CC[C@H](CSc1ccccc1)Nc1ccc(S(=O)(=O)NC(=O)c2ccc(N3CCC([C@@H](O)c4ccccc4-c4ccc(Cl)cc4)CC3)cc2)cc1S(=O)(=O)C(F)(F)F [AZD4320] + Cc1cc2ncnn2cc1Nc1ncc2c(n1)n(C1CCOCC1)c(=O)n2C [AZD7648] (first compound max 1 µM, 7x7, partner max 10 µM) >= 0.7?
Out: Condition not met

In: Decide: combination Emax of CC1(C)CCC(CN2CCN(c3ccc(C(=O)NS(=O)(=O)c4ccc(NCC5CCOCC5)c([N+](=O)[O-])c4)c(Oc4cnc5[nH]ccc5c4)c3)CC2)=C(c2ccc(Cl)cc2)C1 [Venetoclax] + COc1cc(Nc2ncc3c(n2)-c2ccc(Cl)cc2C(c2c(F)cccc2OC)=NC3)ccc1C(=O)O [Alisertib] (first compound max 1 µM, 7x7, partner max 10 µM) >= 0.7?
Out: Condition not met

In: Decide: combination Emax of C=CCn1c(=O)c2cnc(Nc3ccc(N4CCN(C)CC4)cc3)nc2n1-c1cccc(C(C)(C)O)n1 [AZD1775] + O=C(c1cc(Cc2n[nH]c(=O)c3ccccc23)ccc1F)N1CCN(C(=O)C2CC2)CC1 [Olaparib] (first compound max 1 µM, partner max 10 µM) >= 0.7?
Out: Condition not met

In: Decide: combination Emax of CS(=O)(=O)CCNCc1ccc(-c2ccc3ncnc(Nc4ccc(OCc5cccc(F)c5)c(Cl)c4)c3c2)o1 [Lapatinib] + Cn1cnc2c(F)c(Nc3ccc(Br)cc3Cl)c(C(=O)NOCCO)cc21 [Selumetinib] (first compound max 10 µM, 7x7, partner max 10 µM) >= 0.7?
Out: Condition met

Others:
In: Decide: combination Emax of COc1cccc(OCCCN)c1-c1cc(Nc2cnc(C#N)cn2)n[nH]1 [Prexasertib] + CCc1c2c(nc3ccc(O)cc13)-c1cc3c(c(=O)n1C2)COC(=O)[C@]3(O)CC [SN-38] (first compound max 1 µM, 7x7, partner max 0.3 µM) >= 0.7?
Out: Condition met

In: Decide: combination Emax of CN(CCO)CC[C@H](CSc1ccccc1)Nc1ccc(S(=O)(=O)NC(=O)c2ccc(N3CCC([C@@H](O)c4ccccc4-c4ccc(Cl)cc4)CC3)cc2)cc1S(=O)(=O)C(F)(F)F [AZD4320] + Nc1ccn([C@@H]2O[C@H](CO)[C@@H](O)C2(F)F)c(=O)n1 [Gemcitabine] (first compound max 1 µM, 7x7, partner max 0.3 µM) >= 0.7?
Out: Condition not met
